System: SR leukemia
Test: NCI-60 one-dose screen, 48 h
Settings: 10 µM unless noted
About 83,000 compounds went through this panel and 20% of them were active in at least one assay; those are over-represented in the sample as a whole. Activity calls are given as the source filed them. The calls were made as follows: active = growth percent below 10; inactive = the rest.
Form entry, call: pick from active, inactive

Dear colleague, could you share the recorded outcome for `CCCCCc1c(C)[nH]c(/C=C2\N=C(c3ccc[nH]3)C=C2Oc2ccc(OC)cc2)c1C` when you have a moment? active

Called result for N/C(=N\OC(=O)c1ccccc1)C(Cc1ccccc1)C(=O)NOC(=O)c1ccccc1 (stereo not given) active

Can you look up the reported call for CCN(C(=O)CCl)C(C)(C)C(SSSC(c1ccc(Cl)cc1)C(C)(C)N(CC)C(=O)CCl)c1ccc(Cl)cc1 (stereo not given) for me? inactive

What was the test verdict on `COc1ccccc1-[n+]1cc(-c2ccc(-c3ccccc3)cc2)n2c1CCCCC2` ? active

Please indicate how the test categorized `COc1ccc(/C=C/c2nc3ccccc3c(=O)n2-c2ccc(C#Cc3ccc(C(C)(C)C)cc3)cc2C)c(OC)c1` . inactive

Would you mind telling me which call this test gave `Cc1c2c(cc3c1[nH]c1ccccc13)C=NCC2` ? inactive

Kindly provide the recorded test outcome for the following molecule: `COc1cc(-c2nn(C(=O)NCCN3CCN(C)CC3)cc2-c2ccncc2)ccc1Cl` inactive

Per the records of this test, what outcome belongs to `CSC1=N/C(=C\c2cccc(OCc3ccc(Cl)cc3)c2)C(=O)N1` ? inactive

Hey, what did the test say about `O=C1Nc2ccc(Br)cc2/C1=N/c1nc(-c2ccccc2)cs1` ? inactive

Entry `O=C(Nc1cccc(N=Cc2c(O)ccc3ccccc23)c1)c1ccccc1` : call = ? inactive

* * *

Tested on: MCF7 breast
Test: NCI-60 one-dose screen, 48 h (100 = growth as untreated, 0 = no growth, -100 = all killed)
Settings: 10 µM unless noted
This is part of a sample that, as a whole, favours compounds with a hit. Of some 83,000 tested, about 20% had one in any assay.
property.label: growth (%)
Give just the number in %; leave the unit off.

Fill in: growth of CCN1C(=O)C(C)C=C(C)C=C1C (stereo not given) is ___ 106

Need growth of `CC(C)(C)c1ccc(C(=O)Nc2sc3cc(O)ccc3c2C(N)=O)cc1` , thanks. 44

What measured growth goes with COC(=O)C(Br)(C(=O)OC)C(Br)C(Br)C(Br)c1ccccc1 (stereo not given) ? 18.3

I'd like to know its growth. The compound in question is CCC1=CC2CN(C1)Cc1c([nH]c3ccccc13)[C@@](C(=O)OC)(c1cc3c(cc1OC)N(C)[C@H]1[C@@](O)(C(=O)OC)[C@H](OC(C)=O)[C@]4(CC)C=CCN5CC[C@]31[C@@H]54)C2 (stereo not given in full) 8.05

Given `COc1cc2ncnc(Nc3ccc(S(=O)(=O)Nc4nccs4)cc3)c2cc1OCCCN1CCOCC1` , state its recorded growth. 105

For the compound `O=C(CCl)N1c2ccccc2Oc2ccc3ccccc3c21` , what growth is on record? 10.4

Request the reported growth associated with `Cc1c2c(cc3c1[nH]c1ccccc13)C=NCC2` 60.8

Form field: reported growth of `O/N=C1\c2ccccc2-c2ccc(Br)cc21` 91.1

Return reported growth; argument: `COc1ccc(N=C2CSc3nnc(-c4cc(F)c(Cl)cc4Cl)n3N2)cc1` -34.3

Could you share which growth value was measured for Cc1nn(-c2ccccc2)c2nc3c(nc12)C1=NCCN1C(c1ccc(Cl)cc1)N3 (stereo not given) ? 35.3

* * *

Task for the reader: assign each of the following molecules its reported growth.
System: SR leukemia
Assay: NCI-60 one-dose screen, 48 h (100 = growth as untreated, 0 = no growth, -100 = all killed)
Settings: 10 µM unless noted
About 83,000 compounds went through this panel and 20% of them were active in at least one assay; those are over-represented in the sample as a whole.
Express the result in % but write the number alone.

Please report the recorded growth for `COc1cccc(-c2nc3sccn3c2-c2ccnc(NCCN3CCCN(C)S3(=O)=O)n2)c1` . 66.7

For the molecule `Cc1cccc2nc3ccccc3c(Nc3ccc(NS(C)(=O)=O)cc3)c12` , what growth is on record? -3.06

Param item = `OCCN(CCO)c1ccc2ccccc2c1` ; retrieve measured growth. 104

Field request: growth | item: `Cc1ccc(OC2=C(C#N)C(=N)N3C(=NN2)Sc2c(C)ccc(C)c23)cc1` 98.2

What measured growth goes with `O/N=C/c1ccncc1` ? 107

Look at this molecule and give its reported growth. `COc1cc(OC)c(Cl)cc1N` 109

* * *

System: RPMI-8226 leukemia
Assay: NCI-60 one-dose screen, 48 h (100 = growth as untreated, 0 = no growth, -100 = all killed)
Conditions: 10 µM unless noted
About 83,000 compounds went through this panel and 20% of them were active in at least one assay; those are over-represented in the sample as a whole.
property.label: growth (%)
Please reply with the bare figure in % and do not write the unit itself.

Form field: reported growth of `COc1cccc(-c2cc(-c3cccs3)c(C#N)c(=O)[nH]2)c1` 98.3

Data request, read-out growth, for `FC(F)(F)c1nn[nH]n1` 89.5

Quick one: growth of `Cc1ccsc1C(=O)CC(=O)C(F)(F)C(F)(F)C(F)(F)F` ? 101

growth lookup needed for `Fc1ccc(-c2nc(-c3ccc(-c4nc5ccc(F)cc5[nH]4)cc3)no2)cc1` , thanks. 88.1

So what's the measured growth for this one? `CCC(=O)OCc1ccc(OC)cc1` 107

Find the recorded growth belonging to `O=C(Nc1ccc(Br)cc1)c1ccc(Cl)c(Cl)c1` and report it. -6.3

// growth lookup, key: `COc1ccccc1CNCCCN1C(=O)c2ccc3c4c(ccc(c24)C1=O)C(=O)N(CCCOCCCCOCCCN)C3=O` -5.62

Find the recorded growth belonging to `C=C(C)[C@@H]1CC[C@]2(C(=O)NS(=O)(=O)c3ccccc3)CC[C@]3(C)[C@H](CC[C@@H]4[C@@]5(C)CC[C@H](OC(=O)NS(=O)(=O)c6ccccc6)C(C)(C)[C@@H]5CC[C@]43C)[C@@H]12` and report it. -55.3

Return reported growth; argument: `C#CCNc1nc(NCCNC(=O)CCl)nc(N(C)CCCCc2ccccc2)n1` 89.2

# lookup: growth of `N=C(N)c1ccc(NCCNc2ccc(C(=N)N)cc2)cc1` 82.8

* * *

Kindly supply the reported growth values for the records listed here.
Tested on: A549/ATCC NSCLC
Assay: NCI-60 one-dose screen, 48 h (100 = growth as untreated, 0 = no growth, -100 = all killed)
Details: 10 µM unless noted
Compounds without any hit were thinned out: in the full panel of roughly 83,000, 20% have a hit.
Please state the figure in %; there is no need to write the unit.

Record request: growth value, item COc1cc(NCCC2CCCCN2)c2ncccc2c1OC (stereo not given) 82.1

Could you tell me which growth is on file for `O=C(/C=C/c1ccc(F)cc1)N1CCN(C(=O)/C=C/c2ccc(C(F)(F)F)cc2)CC1` ? 96.9

What value of measured growth is listed for `CN(C)CCCn1c(=O)c2cc([N+](=O)[O-])ccc2c2cnc3[nH]ccc3c21` ? 41.5

Can you share its growth? I mean this compound: `CN1C2CCC1/C(=C\c1ccc(F)cc1)C(=O)/C2=C/c1ccc(F)cc1` 36.6

Returns the measured growth for the input compound. Input: `COc1cnc2c(c1)C(=O)c1c-2n(CCCNC(C)C)c(=O)c2cc(Cl)ccc12` -84

// growth lookup, key: COc1cc(C2CC(c3ccc(Cl)cc3)=NN2C(C)=O)ccc1Oc1nc2c(c(=O)n(C)c(=O)n2C)n1C (stereo not given) 59.7

GET /values?readout=growth&item= COc1ccc(C2NC(=O)c3cc4c(cc3N2)OCO4)cc1 (stereo not given) 18.9

Please report the recorded growth for Oc1c(C(Nc2cccc3ccccc23)c2ccccc2)ccc2cccnc12 (stereo not given) . 33.6

Query: growth; subject: `NS(=O)(=O)c1ccc(CCn2c(SCC(=O)N/N=C/c3cccnc3)nc3ccccc3c2=O)cc1` 97.3

Request the reported growth associated with `COc1ccc2nc3cc(Cl)ccc3c(NC(=O)CSc3ccc(Cl)cc3)c2c1` -69.4

* * *

Test system: CAKI-1 renal
Assay: NCI-60 one-dose screen, 48 h (100 = growth as untreated, 0 = no growth, -100 = all killed)
Conditions: 10 µM unless noted
The panel holds about 83,000 compounds, 20% with a hit somewhere; the sample as a whole holds those more often.
The label Yes is reserved for growth strictly under 50%; No covers values equal to or above it.

Is the reported growth for COc1ccc(C(=O)OC2C(OC3C(O)COC(O[C@H]4C[C@H]5[C@@H]6CC=C7C[C@@H](O)CC[C@]7(C)[C@H]6CC[C@]5(C)[C@H]4[C@H](C)C(=O)CCC(C)C)C3OC(C)=O)OCC(O)C2O)cc1 (some centres not stated) strictly below 50%? Yes

I wonder whether CCOC(=O)C1=C(C)NC(=S)NC1c1ccccc1 (configuration not stated) has growth below 50%. Can you tell? No

Given the entry COc1cc(C2CC(c3ccc(Cl)cc3)=NN2C=O)ccc1Oc1ccnc2cc(Cl)ccc12 (configuration not stated) , would its reported growth be below 50%? No

Given the entry CC[C@]1(O)C[C@H]2CN(CCc3c([nH]c4ccccc34)C(C(=O)OC)(c3cc4c(cc3OC)N(C)[C@H]3[C@@](O)(C(=O)OC)[C@H](OC(C)=O)[C@]5(CC)[C@@H]6C[C@@H]6CN6CC[C@]43[C@@H]65)C2)C1 (some centres not stated) , would its reported growth be below 50%? Yes

In the record for C[C@@H]1CC2C3CCC4=CC(=O)C=C[C@]4(C)[C@@]3(Cl)[C@@H](O)C[C@]2(C)[C@@]1(OC(=O)c1ccco1)C(=O)CCl (some centres not stated) , is growth less than 50%? No

Field: below-cutoff. Rule: recorded growth strictly less than 50%. Subject: `CN(C)N1C(=O)c2c(Cl)c(Cl)c(Cl)c(Cl)c2C1=O` No

growth under 50%? Item: COc1ccc(C(=O)N2N=C(c3ccc(F)cc3)CC2c2cn(-c3ccccc3)nc2-c2ccccc2)cc1 (configuration not stated) No

Problem: For the compound `Cc1ccc(Nc2cc(Cl)c([N+](=O)[O-])cc2[N+](=O)[O-])cc1` , is growth under 50%? Yes

Is growth strictly under 50% for the entry CC(=O)NC1C(O[C@H]2C[C@H]3[C@@H]4CC=C5C[C@@H](O)CC[C@]5(C)[C@H]4CC[C@]3(C)[C@H]2[C@H](C)C(=O)CCC(C)C)OCC(O)C1O (some centres not stated) ? Yes

State whether 50% exceeds growth recorded for CC(SC(C)C(=O)N/N=C/c1cccc(Cl)c1)C(=O)N/N=C\c1cccc(Cl)c1 (configuration not stated) . No

Quick check: does `Oc1ccc(-c2nnc3c4[nH]ccc4ncn23)cc1` have growth under 50%? No

Consider CC(=O)CC(c1ccc([N+](=O)[O-])cc1)c1c(O)c2ccccc2oc1=O (configuration not stated) . Does its growth lie strictly below 50%? No

Quick check: does `Cc1cccc2nc3ccccc3c(Nc3ccc(NS(C)(=O)=O)cc3)c12` have growth under 50%? Yes

Please let me know if `Cc1ccc(C(=O)CC(=O)C(F)(F)C(F)(F)C(F)(F)F)s1` shows growth below 50%. No

Quick check: does `O=C(CC(=O)C(F)(F)C(F)(F)C(F)(F)F)c1cc2ccccc2o1` have growth under 50%? No

Lab note: confirm whether the reported growth for this compound is below 50%, equality not counting. compound: `C[N+](C)(C)CCCCCCCCCC[N+](C)(C)C` No

# credit: PubChem BioAssay (NCI)
